Recorded values, source patent US10358434B2.

Assay: In vivo kinetics experiment (radioactivity distribution)
Parameters: species or system Wistar male rat
Settings: 10 min after administration; rat i.v.; mean ± SD
RECORDED_ENDPOINT: Radioactivity distribution Kidney (% ID/g)
Answers are plain numbers, in % ID/g.

Study these solved cases before continuing.
[[record]]
compound = "CCn1c(-c2cncc(Cn3ccnc3)c2)nc2ccc([123I])cc21 [[^123I] 608]"
recorded_endpoint = "Radioactivity distribution Kidney"
unit_abbrev = "% ID/g"
reported_value = 1.79

[[record]]
compound = "CC(C)n1c(-c2cncc(Cn3ccnc3)c2)nc2ccc([123I])cc21 [[^123I] 606]"
recorded_endpoint = "Radioactivity distribution Kidney"
unit_abbrev = "% ID/g"
reported_value = 1.29

[[record]]
compound = "FCCn1c(-c2cncc(Cn3cncc3[123I])c2)nc2cc(F)c(Cl)cc21 [[^123I] 610]"
recorded_endpoint = "Radioactivity distribution Kidney"
unit_abbrev = "% ID/g"
reported_value = 0.86


Let's switch to this compound now.
Data request: I'd like to know its Radioactivity distribution Kidney. The compound in question is Cn1c(-c2cncc(Cn3ccnc3)c2)nc2ccc([123I])cc21 [[^123I] 607]
Data returned: 1.96

---

Give measured Radioactivity distribution Small intestine for each item. Keep answers brief.
Assay: In vivo kinetics experiment (radioactivity distribution)
Parameters: species or system Wistar male rat
Conditions: rat, caudal vein, 60 min after administration
Answers are plain numbers, in % ID/g.

Consider the worked cases shown below.
[[record]]
compound = "FCCn1c(-c2cncc(Cn3ccnc3)c2)nc2cc(F)c([123I])cc21 [[^123I] 400]"
reported_value = 1.85

[[record]]
compound = "[123I]c1ccc2nc(-c3cncc(Cn4ccnn4)c3)n(C3CC3)c2c1 [[^123I] 603]"
reported_value = 3.98

[[record]]
compound = "Fc1cc2nc(-c3cncc(Cn4ccnc4)c3)n(CC[18F])c2cc1Cl [[^18F] 100]"
reported_value = 2.85

[[record]]
compound = "[123I]c1ccc2nc(-c3cncc(Cn4ccnc4)c3)n(C3CC3)c2c1 [[^123I] 602]"
reported_value = 1.85

[[record]]
compound = "Fc1cc2nc(-c3cncc(Cn4ccnc4)c3)n(CC[18F])c2cc1Br [[^18F] 200]"
reported_value = 4.13


Let us move to another entry and its Radioactivity distribution Small intestine.
Data request: Give the measured Radioactivity distribution Small intestine of Fc1cc2nc(-c3cncc(Cn4ccnc4)c3)n(CCC[18F])c2cc1Cl [[^18F] 500] .
Data returned: 5.36

---

Experiment: In vivo kinetics experiment (radioactivity distribution)
Parameters: species or system Wistar male rat
Details: rat, caudal vein, 60 min after administration
Please respond with reported Radioactivity distribution Muscle (lower limbs) for every item in the list.
Please state the number and follow it with the unit.

Solved cases below.
[[record]]
compound = "Fc1cc2nc(-c3cncc(Cn4ccnc4)c3)n(CCC[18F])c2cc1Cl [[^18F] 500]"
reported_value = "0.11 ± 0.03 % ID/g"

[[record]]
compound = "Fc1cc2nc(-c3cncc(Cn4ccnc4)c3)n(CC[18F])c2cc1Cl [[^18F] 100]"
reported_value = "0.09 ± 0.01 % ID/g"


Provide reported Radioactivity distribution Muscle (lower limbs) for each item, in the same order as listed.
1. [123I]c1ccc2nc(-c3cncc(Cn4ccnn4)c3)n(C3CC3)c2c1 [[^123I] 603]
2. Fc1cc2nc(-c3cncc(Cn4ccnc4)c3)n(CC[18F])c2cc1Br [[^18F] 200]
3. FCCn1c(-c2cncc(Cn3ccnc3)c2)nc2cc(F)c([123I])cc21 [[^123I] 400]

Data returned:
1. 0.14 ± 0.01 % ID/g
2. 0.12 ± 0.00 % ID/g
3. 0.12 ± 0.02 % ID/g

Data request: Which Radioactivity distribution Muscle (lower limbs) is reported for this compound? [123I]c1ccc2nc(-c3cncc(Cn4ccnc4)c3)n(C3CC3)c2c1 [[^123I] 602]
Data returned: 0.12 ± 0.02 % ID/g
